- protocolSummary: Toxicity in nude mouse xenografted with human A549 cells assessed as change in body weight at 400 mg/kg, po administered on day 0 to 13 except for day 3 and 10 measured after 28 days (reference value: 17 %)
- Type: organism-based
- assaySetup: in vivo, 672 h, time 28 day
reportedMetric: Activity (%)

{"columns": ["smilesCode", "reportedMetric", "observedValue"],
 "data": [
  ["FC(F)c1nc2ccccc2n1-c1nc(N2CCOCC2)nc(N2CCOCC2)n1", "Activity", 0]
]}
